Entry source: ChEMBL document CHEMBL3885881

Species on record: Rattus norvegicus
method: DrugMatrix - Regimen: Daily Repeat
Type: toxicity, organism-based, Sprague-Dawley
Design: regimen Daily Repeat, gender Male, age 6-8 weeks
condition-description: in vivo, po, 0 mg/kg, 120 h, tissue Blood, route oral GAVAGE, dose level Control, time 5 day, […]
PLATELET COUNT below 1000 x10E3/uL gives not fulfilled; PLATELET COUNT at or above it gives fulfilled.

Clc1ccc(Cl)cc1 : fulfilled
CC(C)Cc1ccc(C(C)C(=O)O)cc1 (centres undefined) : not fulfilled
O=NN(CCCl)C(=O)NCCCl : fulfilled
CC(=O)Nc1cccc(O)c1 : fulfilled
C[C@H]1O[C@@H](O[C@H]2[C@@H](O)C[C@H](O[C@H]3[C@@H](O)C[C@H](O[C@H]4CC[C@@]5(C)[C@H](CC[C@@H]6[C@@H]5CC[C@]5(C)[C@@H](C7=CC(=O)OC7)CC[C@]65O)C4)O[C@@H]3C)O[C@@H]2C)C[C@H](O)[C@@H]1O : not fulfilled
C[C@]12CC[C@@H]3c4ccc(O)cc4CC[C@H]3[C@@H]1CC[C@@H]2O : fulfilled
COCCOC(=O)C1=C(C)NC(C)=C(C(=O)OC(C)C)C1c1cccc([N+](=O)[O-])c1 (centres undefined) : not fulfilled
Cc1cccc(Nc2ccncc2S(=O)(=O)NC(=O)NC(C)C)c1 [TORSEMIDE] : fulfilled
CC/C(=C(/CC)c1ccc(O)cc1)c1ccc(O)cc1 : fulfilled
